- run description: Selectivity index, ratio of CC50 for cytotoxicity against mock-infected human MT4 cells to EC50 for antiviral activity against HIV-1 3B
- Assay type: toxicity, cell-based
- experimental setup: read-out: Ratio CC50/EC50
readout name: selectivity ratio

CO/N=C(\Cl)CCC/C=C(/c1cccc(C#N)c1)c1cc(C)c(OC)c(C(=O)SC)c1; 33

Can you share its selectivity ratio? I mean this compound: CO/N=C(\F)c1cc(/C(=C\CCCc2nnc(C)o2)c2cc(C)c3onc(OC)c3c2)cc(C)c1OC
10

# selectivity ratio lookup, item CO/N=C(\F)c1cc(/C(=C\CCCc2nc(C)no2)c2ccc(C#N)cc2)cc(C)c1OC
4

Please give the measured selectivity ratio for this compound: O=c1[nH]cnc2c1ncn2[C@H]1CC[C@@H](CO)O1
> 24

Fill in: selectivity ratio of CO/N=C(\Cl)c1cc(/C(=C\CCCc2nc(C)no2)c2cc(C)c3onc(OC)c3c2)cc(C)c1OC is ___
5
